system tested: Albumin (Bos taurus) (UniProt P02769)
Sequence (P02769 whole entry, looked up): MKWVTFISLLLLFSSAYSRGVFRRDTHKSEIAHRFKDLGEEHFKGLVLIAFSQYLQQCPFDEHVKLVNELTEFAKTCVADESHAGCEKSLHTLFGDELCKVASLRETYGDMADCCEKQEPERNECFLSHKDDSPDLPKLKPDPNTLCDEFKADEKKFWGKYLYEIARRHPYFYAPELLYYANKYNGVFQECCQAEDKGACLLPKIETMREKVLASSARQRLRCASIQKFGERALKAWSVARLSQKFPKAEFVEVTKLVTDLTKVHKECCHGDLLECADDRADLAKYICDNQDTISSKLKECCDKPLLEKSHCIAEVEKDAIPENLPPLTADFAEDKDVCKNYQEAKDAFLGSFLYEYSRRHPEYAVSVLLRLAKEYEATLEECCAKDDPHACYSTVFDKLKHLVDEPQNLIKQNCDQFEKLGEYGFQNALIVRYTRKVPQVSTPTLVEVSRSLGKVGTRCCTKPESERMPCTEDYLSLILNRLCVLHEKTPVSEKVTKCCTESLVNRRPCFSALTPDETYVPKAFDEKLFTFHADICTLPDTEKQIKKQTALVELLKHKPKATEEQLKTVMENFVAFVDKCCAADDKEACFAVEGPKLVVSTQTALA
test method notes: bovine serum albumin binders on microarray, profiling panel, artefact control for SMM control protein annotation, biochemical, small-molecule microarray, Alexa647 label, 635/667 nm fluorescence (AID 1118);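 further: score merges 667 nm emission intensity and signal-to-noise per printed compound spot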
measurement setup: BSA-A647 binding, fluorescence 635 nm, higher = more signal
test readout: composite z-score
Answer with a number only.

Before answering, review these 3 worked examples.
* COc1ccc(C#Cc2ccc3c(c2)[C@]2(C(=O)N3)[C@H](C(=O)NC[C@H](O)c3ccccc3)[C@H]3C(=O)O[C@H](c4ccccc4)[C@H](c4ccccc4)N3[C@@H]2c2ccc(O)cc2)cc1 | 0.186
* COCCOC(=O)N1C(=O)[C@@]2(c3cc(C#CCC(C(=O)OC)C(=O)OC)ccc31)[C@H](C(=O)Nc1nc3ccccc3s1)[C@H]1C(=O)O[C@H](c3ccccc3)[C@H](c3ccccc3)N1[C@@H]2c1ccccc1OCCO | 0.893
* CC(C)C(=C=CC[C@@H](O)c1ccc(OCCO)cc1)C[C@@H](O)c1ccccn1 | -0.363

Data point: `CCC[C@@H]1C[C@@]1(CCC)[C@@H](NS(=O)(=O)c1cccc2cccnc12)c1ccc(Cl)cc1` ; composite z-score = 0.659

Data point: `COC(=O)[C@@]1(Cc2ccc(F)cc2)[C@H]2c3cc(C(=O)N(C)C)n(Cc4ccccc4)c3C[C@H]2CN1C(=O)c1ccccc1` ; composite z-score = 0.816

Data point: `COc1ccc(C#Cc2ccc3c(c2)[C@]2(C(=O)N3)[C@H](c3ccccc3OCCO)N3[C@H](c4ccccc4)[C@H](c4ccccc4)OC(=O)[C@H]3[C@@H]2C(=O)Nc2nc3ccccc3s2)cc1` ; composite z-score = 0.187

---

z-score overview
test method notes: basal HepG2 mitochondrial membrane potential changes, profiling panel, cell-based, JC-1 fluorescence, 24 h, 100 nL compound (AID 1167); further: test concentration not given here
measurement setup: higher = more signal
Answer with a number only.

Before answering, review these 5 worked examples.
- CN(C)C(=O)[C@]1(Cc2ccccc2N=[N+]=[N-])N=C(c2ccc(OCCCO)cc2)O[C@@H]1c1ccccc1N=[N+]=[N-]: 1.53
- O=C1c2ccccc2[C@](Cc2ccccc2I)(C(=O)NCC(F)(F)F)[C@H](c2ccc(CO)cc2)N1Cc1ccccc1Cl: 0.798
- O=C1O[C@@H](c2ccccc2)[C@@H](c2ccccc2)N2[C@@H](c3ccccc3OCCO)[C@]3(C(=O)Nc4ccc(C#CC5=CCCCC5)cc43)[C@@H](C(=O)N3CCCCCCC3)[C@H]12: 1.19
- CO[C@H]1O[C@H](CO)[C@@H](OC(=O)Nc2cccc(F)c2)[C@H](OC(=O)Nc2ccccc2)[C@@H]1OC(=O)Nc1ccccc1: -0.702
- NC(=O)NCC#Cc1ccc2c(c1)[C@]1(C(=O)N2)[C@H](c2ccccc2OCCO)N2[C@H](c3ccccc3)[C@H](c3ccccc3)OC(=O)[C@H]2[C@@H]1C(=O)Nc1nc2ccccc2s1: -2.78

Data point: CCC(CC)C(O)C1C=CC2C(=O)NC(=O)C2N1Nc1ccccn1 (stereo not drawn) ; z-score = -0.29

Data point: CN1C(=O)C2C=CC(C(O)C3CC=CCC3)N(N(c3ccccc3)c3ccccc3)C2C1=O (stereo not drawn) ; z-score = -0.77

Data point: `O=C(NCCN1CCOCC1)[C@@H]1c2ccccc2C(=O)N(C2CCCCC2)[C@H]1c1ccc(CO)cc1` ; z-score = 3.08

Data point: `C=CCNC(=O)[C@@H]1[C@H]2C(=O)O[C@H](c3ccccc3)[C@H](c3ccccc3)N2[C@H](c2ccc(O)cc2)[C@@]12C(=O)Nc1ccc(C#CCNC(N)=O)cc12` ; z-score = -1.14

---

Test system: Neuregulin-1 EGF-like domain
test method notes: binders of neuregulin-1 EGF-like domain, primary screen, biochemical, small-molecule microarray, 635 nm fluorescence (AID 1081);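 further: binding of the protein to compounds printed on small-molecule microarray slides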
measurement setup: small-molecule microarray binding, higher = more signal
composite z-score overview
Answer with a number only.

Before answering, review these 2 worked examples.
• C=CCC(OC(C)=O)[C@@H]1[C@@H](N(Cc2ccc(-c3ccccc3)cc2)C(=O)Cc2ccc(OC)cc2)c2cc(OCCCO)ccc2N1C(=O)Cc1ccc2ccccc2c1 (stereo not given in full) = -0.504
• Cc1ccc(S[C@]2(C(=O)NCCCN(C)C)CC(=O)N(Cc3cc(C(F)(F)F)cc(C(F)(F)F)c3)[C@@H]2c2ccc(CO)cc2)cc1 = -0.624

Data point: `C=CCNC(=O)[C@@H]1[C@H]2C(=O)O[C@H](c3ccccc3)[C@H](c3ccccc3)N2[C@H](c2ccc(OCCO)cc2)[C@@]12C(=O)Nc1ccc(C#CCC(C(=O)OC)C(=O)OC)cc12` ; composite z-score = 1.3

Data point: N#Cc1ccc(NN2C(C(O)C(c3ccccc3)c3ccccc3)C=CC3C(=O)N(c4ccccc4)C(=O)C32)cc1 (stereo not given) ; composite z-score = 1.15

Data point: COc1cc(NN2C(C(O)c3ccco3)C=CC3C(=O)N(c4ccccc4)C(=O)C32)cc(OC)c1OC (stereo not given) ; composite z-score = 1.21

Data point: C=CCC(OC(C)=O)[C@@H]1[C@@H](N(Cc2cccc3ccccc23)C(=O)c2ccc(-c3ccccc3)cc2)c2cc(OCCCO)ccc2N1C(=O)c1ccc2ccccc2c1 (stereo not given in full) ; composite z-score = 0.0031

Data point: `COCCOC(=O)N1C(=O)[C@@]2(c3cc(C#Cc4ccc(OC)cc4)ccc31)[C@H](c1ccccc1OCCO)N1[C@H](c3ccccc3)[C@H](c3ccccc3)OC(=O)[C@H]1[C@@H]2C(=O)NC[C@H](O)c1ccccc1` ; composite z-score = 1.3

Data point: `COc1ccc(C#Cc2ccc3c(c2)[C@]2(C(=O)N3)[C@H](C(=O)Nc3nc4ccccc4s3)[C@H]3C(=O)O[C@H](c4ccccc4)[C@H](c4ccccc4)N3[C@@H]2c2ccc(O)cc2)cc1` ; composite z-score = 1.34

Data point: `CCCC[C@@H]1C[C@H]1[C@@H](NC(=O)c1cccs1)c1ccc(-c2ccccc2)cc1` ; composite z-score = 0.411

---

test method notes: A549 lung cancer cell viability effects, profiling panel, resazurin fluorescence, 24 h, PK04 Diversity Set (AID 1171); further: test concentration not given here
measurement setup: higher = more signal, called active from +8 up or from −8 down
Binned z-score; ranges: low bin: < -0.4; mid bin: ≥ -0.4 and < 0.4; high bin: ≥ 0.4

For orientation, consider the following solved cases.
* COc1ccc(C(O)C2C=CC3C(=O)N(Cc4ccccc4)C(=O)C3N2n2cnnc2)cc1OCc1ccccc1 (stereo not drawn) | mid bin
* [N-]=[N+]=Nc1ccccc1[C@H]1OC(c2ccc(OCCCO)cc2)=N[C@@]1(CCS(=O)(=O)c1ccccc1)C(=O)NCC(O)CO (stereo partly drawn) | high bin

Task: Band for COc1cc(Br)cc(C(O)C2C=CC3C(=O)N(C)C(=O)C3N2N2CCCCC2)c1OC (stereo not drawn) ?
Result: mid bin

Task: Band for `COC(=O)[C@@]1(Cc2ccc(OC)cc2)[C@H]2c3cc(C(=O)N4CCCC4)n(Cc4ccc(O)c(OC)c4)c3C[C@H]2CN1C(=O)c1ccccc1` ?
Result: low bin

Task: Band for CC(=O)n1cc(C(O)C2C=CC3C(=O)N(c4ccccc4)C(=O)C3N2Nc2ccc([N+](=O)[O-])cc2)c2ccccc21 (stereo not drawn) ?
Result: mid bin

Task: Band for `COCCCNC(=O)[C@]1(CCC(=O)OC(C)(C)C)N=C(c2ccc(OCCCO)cc2)O[C@@H]1c1ccccc1CN=[N+]=[N-]` ?
Result: high bin

Task: Band for `COC(=O)[C@H](Cc1ccccc1)N[C@@H](/C=C/C1CC1)[C@H](O)Cc1ccccc1` ?
Result: high bin

Task: Band for CC1(C)[C@@H]2CC(C(O)C3C=CC4C(=O)N(Cc5ccccc5)C(=O)C4N3n3cnnc3)=C[C@H]1C2 (stereo partly drawn) ?
Result: high bin

Task: Band for CCCCCN1CC=CC23O[C@@H]4/C=C\CCC(C)OC(=O)C4[C@H]2C(=O)N(C(C)CO)[C@@H]3C1=O (stereo partly drawn) ?
Result: high bin

Task: Band for `O=C(CS)NCCCCCCNC(=O)[C@@H]1C[C@@H]2C(=O)N[C@@H](Cc3ccccc3)C(=O)N2[C@@H]1c1cccc(OCCO)c1` ?
Result: low bin

Task: Band for `COCCOC(=O)N1C(=O)[C@@]2(c3cc(C#CCC(C(=O)OC)C(=O)OC)ccc31)[C@H](C(=O)Nc1nc3ccccc3s1)[C@H]1C(=O)O[C@H](c3ccccc3)[C@H](c3ccccc3)N1[C@@H]2c1ccccc1OCCO` ?
Result: low bin

Task: Band for `C=C(CCCC)/C(=C/C[C@H](OC(C)=O)c1ccccc1OCCO)c1cc(C(=O)OC)ccc1OC` ?
Result: high bin

Task: Band for `C=C[C@H](C)[C@@H](OC(=O)Nc1ccc(OC)cc1)c1ccc(O)c2ccccc12` ?
Result: low bin

Task: Band for `C=CCOC(=O)[C@@H]1[C@H]2C(=O)O[C@H](c3ccccc3)[C@H](c3ccccc3)N2[C@H](c2ccc(OCCOC(=O)[C@H]3C[C@H]4C(=O)N5CCC[C@H]5C(=O)N4[C@H]3c3ccc(O)cc3)cc2)[C@@]12C(=O)Nc1ccc(I)cc12` ?
Result: low bin

Task: Band for `C=CCOC(=O)[C@H]1[C@@H]2C(=O)O[C@@H](c3ccccc3)[C@@H](c3ccccc3)N2[C@@H](c2ccc(OCCOC(=O)[C@@H]3C[C@@H]4C(=O)N[C@@H](CCCCNC(C)=O)C(=O)N4[C@@H]3c3ccc(O)cc3)cc2)[C@]12C(=O)Nc1ccccc12` ?
Result: low bin

Task: Band for `Cc1ccc(S[C@]2(C(=O)NCCCN(C)C)CC(=O)N(Cc3cc(C(F)(F)F)cc(C(F)(F)F)c3)[C@@H]2c2ccc(CO)cc2I)cc1` ?
Result: mid bin

Task: Band for `C#C[C@H](O[Si](C#Cc1ccc(Oc2ccccc2)cc1)(C(C)C)C(C)C)c1ccccc1` ?
Result: low bin

Task: Band for `COc1ccc(CCNC(=O)[C@@]2(Sc3ccc(C)cc3)CC(=O)N(C(C)C)[C@@H]2c2ccc(CO)cc2I)cc1` ?
Result: mid bin

Task: Band for `CC(C)[Si]1(C(C)C)O[C@@H](c2ccccc2)c2cc(-c3ccc(-c4ccc(Cl)c(Cl)c4)o3)nc(-c3ccccc3)c21` ?
Result: high bin

Task: Band for `CNS(=O)(=O)c1ccc(C)cc1` ?
Result: mid bin

Task: Band for `NC(=O)NCC#Cc1ccc2c(c1)[C@]1(C(=O)N2)[C@H](C(N)=O)[C@H]2C(=O)O[C@H](c3ccccc3)[C@H](c3ccccc3)N2[C@@H]1c1ccc(O)cc1` ?
Result: high bin

Task: Band for `C=CCNC(=O)[C@@H]1[C@H]2C(=O)O[C@H](c3ccccc3)[C@H](c3ccccc3)N2[C@H](c2ccc(O)cc2)[C@@]12C(=O)N(C(=O)OCCOC)c1ccc(C#CCNC(N)=O)cc12` ?
Result: low bin

Task: Band for `COCCOC(=O)N1C(=O)[C@@]2(c3cc(C#Cc4ccc(OC)cc4)ccc31)[C@H](c1ccc(O)cc1)N1[C@H](c3ccccc3)[C@H](c3ccccc3)OC(=O)[C@H]1[C@@H]2C(=O)N1CCc2cc(OC)c(OC)cc2C1` ?
Result: high bin

Task: Band for CC(C)=CCCC(C)=CC(O)C1C=CC2C(=O)N(C)C(=O)C2N1Nc1ccccc1 (stereo not drawn) ?
Result: high bin

// provenance: PubChem BioAssay
